- Test system: tetA promoter (PtetA)-lacZ reporter in E. coli KM3
- Assay type: cell-based
- SETTINGS: Table 4; chlorimuron 20 μg/ml (20 ppm); 48 hrs at 30° C.
relative β-galactosidase activity, inducer Ci listing for selected molecules.
REPORTED ENDPOINT: relative β-galactosidase activity, inducer Ci

molecule="L1-24: library L1 hit, sulfonylurea-responsive TetR(B) variant (protein, Sulfonylurea responsive repressor L1-24) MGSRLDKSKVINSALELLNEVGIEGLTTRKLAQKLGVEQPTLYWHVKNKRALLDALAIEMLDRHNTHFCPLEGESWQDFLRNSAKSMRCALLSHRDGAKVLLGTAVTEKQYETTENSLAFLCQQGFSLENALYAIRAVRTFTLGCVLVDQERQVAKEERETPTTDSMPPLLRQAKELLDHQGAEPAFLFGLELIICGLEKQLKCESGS" measured_value=22.1
molecule="L1-31: library L1 hit, sulfonylurea-responsive TetR(B) variant (protein, Sulfonylurea responsive repressor L1-31) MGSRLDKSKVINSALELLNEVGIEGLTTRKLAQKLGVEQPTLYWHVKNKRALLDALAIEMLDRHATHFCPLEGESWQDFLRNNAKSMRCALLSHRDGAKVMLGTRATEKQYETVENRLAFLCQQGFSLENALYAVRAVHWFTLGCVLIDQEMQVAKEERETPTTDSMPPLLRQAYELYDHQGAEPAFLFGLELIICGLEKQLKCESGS" measured_value=1.1
